molecular target: Human CD137 ECD (human); assay: single mutant vs template dBBDu183H
Sequence (chain, as listed by the source limits assumed): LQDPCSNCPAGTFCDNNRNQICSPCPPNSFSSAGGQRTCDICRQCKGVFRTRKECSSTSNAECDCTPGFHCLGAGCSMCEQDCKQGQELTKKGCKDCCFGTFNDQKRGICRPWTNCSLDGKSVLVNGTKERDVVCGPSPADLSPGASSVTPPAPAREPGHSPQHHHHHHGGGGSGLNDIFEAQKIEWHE
# fold change of affinity annotations
Give the number; fold is assumed, so skip it.

binder	experimental_value
H183/L072 VH F29G (antibody, name in Kabat numbering, V domains shown) VH: QVQLVESGGGLVQPGRSLRLSCAASGFTGSNAWMHWVRQAPGKGLEWVAQIKDKGNAYAAYYAPSVKGRFTISRDDSKNSIYLQMNSLKTEDTAVYYCHYVHYASASTVLPAFGVDAWGQGTTVTVSS VL: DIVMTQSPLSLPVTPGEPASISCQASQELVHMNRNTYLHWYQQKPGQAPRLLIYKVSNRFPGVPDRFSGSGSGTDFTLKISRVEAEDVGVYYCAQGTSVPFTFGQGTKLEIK	0
H183/L072 VH T28D (antibody, name in Kabat numbering, V domains shown) VH: QVQLVESGGGLVQPGRSLRLSCAASGFDFSNAWMHWVRQAPGKGLEWVAQIKDKGNAYAAYYAPSVKGRFTISRDDSKNSIYLQMNSLKTEDTAVYYCHYVHYASASTVLPAFGVDAWGQGTTVTVSS VL: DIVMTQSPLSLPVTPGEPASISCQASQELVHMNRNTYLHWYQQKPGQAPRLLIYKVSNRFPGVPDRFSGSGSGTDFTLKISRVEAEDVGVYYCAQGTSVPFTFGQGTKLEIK	0

Now look at this one.
stdin: State the recorded fold change of affinity for this entry: H183/L072 VH D52aH (antibody, name in Kabat numbering, V domains shown) VH: QVQLVESGGGLVQPGRSLRLSCAASGFTFSNAWMHWVRQAPGKGLEWVAQIKHKGNAYAAYYAPSVKGRFTISRDDSKNSIYLQMNSLKTEDTAVYYCHYVHYASASTVLPAFGVDAWGQGTTVTVSS VL: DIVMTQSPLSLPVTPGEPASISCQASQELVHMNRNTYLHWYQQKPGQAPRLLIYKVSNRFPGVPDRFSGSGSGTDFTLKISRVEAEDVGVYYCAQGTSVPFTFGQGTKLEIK
stdout: 0
